# targetOrTestSystem: embryonic ectoderm development (EED) (Homo sapiens, UniProt O75530)
# Sequence (O75530 2-441): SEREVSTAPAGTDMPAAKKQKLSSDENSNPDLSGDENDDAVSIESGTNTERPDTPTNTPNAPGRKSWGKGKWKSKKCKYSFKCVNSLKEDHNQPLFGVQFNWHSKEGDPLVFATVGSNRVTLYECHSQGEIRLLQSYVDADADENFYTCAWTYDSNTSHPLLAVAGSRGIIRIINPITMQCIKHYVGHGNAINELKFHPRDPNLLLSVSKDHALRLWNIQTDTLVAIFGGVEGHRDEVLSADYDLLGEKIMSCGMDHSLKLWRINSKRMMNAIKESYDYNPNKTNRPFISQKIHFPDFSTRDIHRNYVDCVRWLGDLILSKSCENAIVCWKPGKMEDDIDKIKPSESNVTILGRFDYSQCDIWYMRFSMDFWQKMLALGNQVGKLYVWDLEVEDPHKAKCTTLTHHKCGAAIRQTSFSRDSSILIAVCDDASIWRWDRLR
propertyLabel: Kd (µM)

> print(dat)
                                   molecule  propertylabel  unitsymbol  number
1  CCOP(=O)(OCC)C(NC(=O)[C@H](Cc1ccc(-c2ccccc2)cc1)NC(=O)/C=C/c1ccc(-c2ccccc2)cc1)P(=O)(OCC)OCC [LG1980]             Kd          µM    2.71
